Ref: ChEMBL document CHEMBL4732263

# protocol_notes: Ratio of drug level in blood to plasma in Sprague-Dawley rat at 2.5 mg/kg, iv up to 24 hrs by LC-MS analysis by LC-MS analysis
# Format: ADME, organism-based
# condition_context: blood and plasma
endpoint_name: blood plasma ratio at 24 h

• N=C(N)NC(=O)c1nc(Cl)c(N2CCCCCC2)nc1N [N,N-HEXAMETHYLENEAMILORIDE] = 1.8

----------
# protocol_notes: in vitro
# condition_context: human, liver microsomes
Measured microsomal CLint at 1 h, 1 µM of individual entries
endpoint_name: microsomal CLint at 1 h, 1 µM (µL/min/mg)

• N=C(N)NC(=O)c1nc(-c2cncnc2)c(N2CCCCCC2)nc1N = 20
• N=C(N)NC(=O)c1nc(-c2cc3ccccc3s2)c(N)nc1N = 25
• N=C(N)NC(=O)c1nc(-c2ccco2)c(N)nc1N = 50
• N=C(N)NC(=O)c1nc(-c2cc3ccccc3o2)c(N2CCCCCC2)nc1N = 26
• N=C(N)NC(=O)c1nc(-c2cc3ccccc3o2)c(N)nc1N = 53
• N=C(N)NC(=O)c1nc(-c2cc3ccccc3s2)c(N2CCCCCC2)nc1N = 28
• N=C(N)NC(=O)c1nc(-c2ccco2)c(N2CCCCCC2)nc1N = 35
• N=C(N)NC(=O)c1nc(-c2ccc(C(F)(F)F)cc2)c(N2CCCCCC2)nc1N = 23
• N=C(N)NC(=O)c1nc(Cl)c(N2CCCCCC2)nc1N [N,N-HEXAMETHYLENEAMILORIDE] = 24
